// data source = the NIST ThermoML archive (doi:10.1021/je800925v)

# Measurement parameters: 298.15 K; Liquid
Measured quantity: viscosity (mPa·s)

See these solved cases before continuing.
* CCO | 1.099
* CCCCCC | 0.2865

1 = CCCCCCCCCC
2 = CCCCCCCC
Incoming: Would you mind telling me which has the lower recorded viscosity between 1 and 2 ? Record your answer as the label of the chosen record.
Outgoing: 2
(2: 0.5087 mPa·s, 1: 0.8509 mPa·s)

---

# Measurement parameters: 293.15 K; Liquid
Measured quantity: mass density (kg/m3)

• CCCCCC [hexane] = 659.8
• CCCCCCCC [octane] = 705.6
• CCCCCCCCCC [decane] = 731
• CCO [ethanol] = 790.2
